Origin of measurements: PubChem BioAssay (NCI)

Provide the reported TGI of each item.
# Test system: SK-MEL-28 melanoma
# EXPERIMENT NOTES: NCI tumour cell line growth inhibition, 48 h

Requested read-out: TGI. Entry: Cn1cc(CO)c2ccccc21
> 100 µM

// same read-out, input: COc1ccc(C(=O)C[C@]2(O)C(=O)Nc3c(Cl)ccc(Cl)c32)cc1
> 100 µM

Item: CCCn1cnc2c(SCc3ccccc3)nc(N)nc21
> 100 µM

Input O=C1C(c2ccccc2)=C(c2ccccc2)[C@H](c2ccccc2)[C@]1(Cc1nnn(-c2ccc([N+](=O)[O-])cc2)c1N1CCOCC1)c1ccccc1
> 37.5 µM

Likewise for c1ccc(NC[Si]23OCCN(CCO2)CCO3)cc1 ?
> 100 µM
